- measurement target: MarA (Escherichia coli)
- protocol description: MarA-activated selective marker (ccdB) cell survival assay, Example 2
- Type: cell-based
- Parameters: key: * indicates good inhibition of MarA; ** indicates very good inhibition of MarA
- applied conditions: inhibition of MarA: cell survival under conditions of MarA expression (ccdB under MarA-activated promoter)
property name: MarA inhibition class

compound	measurement target	MarA inhibition class
O=[N+]([O-])c1ccc2nc(-c3ccccc3)n(OCc3ccccc3)c2c1	MarA (Escherichia coli)	**
CCOc1ccc(C2Nc3ccccc3-c3nnc(SC)nc3O2)cc1 (stereo not drawn)	MarA (Escherichia coli)	*
O=[N+]([O-])c1ccc2nc(-c3ccccc3)n(OCc3cccc(C(F)(F)F)c3)c2c1	MarA (Escherichia coli)	**
COC(=O)c1ccccc1NC(=O)CSc1nnc(-c2ccco2)n1-c1ccccc1	MarA (Escherichia coli)	*
CCOC(=O)C1=C(C)N=c2sc(=Cc3ccc(-c4cccc(C(=O)O)c4)o3)c(=O)n2C1c1c(OC)ccc2ccccc12 (stereo not drawn)	MarA (Escherichia coli)	**
COn1c(-c2ccc(C)cc2)nc2ncccc21	MarA (Escherichia coli)	*
Cc1cc2nc3s/c(=C/c4c[nH]nc4-c4ccccc4)c(=O)n3c2cc1C	MarA (Escherichia coli)	*
CCCCSc1nnc2c(n1)OC(c1ccc(OC)cc1OC)Nc1ccccc1-2 (stereo not drawn)	MarA (Escherichia coli)	*

Let us examine a further case.
Query: Short answer please: MarA inhibition class, MarA (Escherichia coli), entry CCOC(=O)C(C(N)=O)C1(O)OC(c2ccc(C)cc2)=CC1=O (stereo not drawn)
Result: *

###

- measurement target: MarA (Escherichia coli, UniProt P0ACH5)
- Sequence (P0ACH5 whole entry, looked up): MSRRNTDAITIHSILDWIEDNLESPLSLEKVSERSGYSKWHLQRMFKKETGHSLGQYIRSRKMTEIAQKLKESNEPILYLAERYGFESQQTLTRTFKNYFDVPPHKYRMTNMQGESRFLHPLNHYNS
- protocol description: MarA-activated selective marker (ccdB) cell survival assay, Example 2
- Type: cell-based
- Design: key: * indicates good inhibition of MarA; ** indicates very good inhibition of MarA
- applied conditions: inhibition of MarA: cell survival under conditions of MarA expression (ccdB under MarA-activated promoter)
property name: MarA inhibition class

molecule	measurement target	observed measurement
C=CCOc1ccc(C2Nc3ccccc3-c3nnc(SCCCC)nc3O2)cc1 (stereo not shown) [I]	MarA (Escherichia coli, UniProt P0ACH5)	**
CCOC(=O)C1=C(C)N=c2sc(=Cc3ccc(-c4ccc([N+](=O)[O-])cc4C)o3)c(=O)n2C1c1ccc2c(c1)OCO2 (stereo not shown) [P]	MarA (Escherichia coli, UniProt P0ACH5)	*
CSc1nnc2c(n1)OC(c1ccc(-c3ccc([N+](=O)[O-])cc3)o1)Nc1ccccc1-2 (stereo not shown) [D]	MarA (Escherichia coli, UniProt P0ACH5)	*
O=C1C(=C2NC(c3ccccn3)C3C(=O)N(c4ccccc4)C(=O)C23)C(=O)c2ccccc21 (stereo not shown) [AF]	MarA (Escherichia coli, UniProt P0ACH5)	**
